# targetUnderTest: T1, recombinant soluble CD4 (rsCD4) (UniProt P01730 26-396, limits assumed)
# T1 construct: Bought reagent coated on ELISA plates at 0.25 µg/ml; also called solid-phase rsCD4
# assayNotes: ELISA on rsCD4
Answer each item with its documented fold reduction in binding compared to the chimeric antibody.

binder	recordedResult
deimmunized B4 antibody DIVHv.4/VKv.3 produced by NS0 cells (antibody, human IgG1, V domains shown, Human IgG1 and human kappa constant regions; NS0 cells; also called DIVHv.4/V v.3) VH: QVQLVQSGAEVKKPGASVKVSCKASGYTFTDYVIHWVRQATGQGLEWIGEIYPGSGSAYSNSKFKDRVTITADKSTNTAYMELRSLRSDDTAVYFCARRGNGTGFAYWGQGTLVTVSS VL: DIVLTQSPASLAVSPGQRATITCKAGQSVDYDGDSYMNWYQQKPGQPPKLLIYVASNLESGIPSRFSGSGSGTDFTLTINPVEENDTATYYCQQSYKDPLAFGPGTKVEIK	5 fold

Batch request: fold reduction in binding compared to the chimeric antibody for each of the following binders.
1. deimmunized B4 antibody DIVHv.3/VKv.1 produced by NS0 cells (antibody, human IgG1, V domains shown, Human IgG1 and human kappa constant regions; NS0 cells; also called DIVHv.3/V v.1; DIVH3/VK1) VH: QVQLVQSGAEVKKPGASVKVSCKASGYTFTDYVIHWVKQATGQGLEWIGEIYPGSGSAYSNAKFKDRVTITADKSTNTAYMELRSLRSDDTAVYFCARRGNGTGFAYWGQGTLVTVSS VL: DIVLTQSPASLAVSLGQRATITCKAGQSVDYDGDSYMNWYQQKPGQPPKLLIYVASNLESGIPARFSGSGSGTDFTLNIHPVEENDAATYYCQQSYKDPLTFGQGTKLEIK
2. deimmunized B4 antibody DIVHv.2/VKv.1 produced by NS0 cells (antibody, human IgG1, V domains shown, Human IgG1 and human kappa constant regions; NS0 cells; also called DIVHv.2/V v.1; DIVH2/VK1) VH: QVQLVQSGAEVKKPGASVKVSCKASGYTFTDYVIHWVRQATGQGLEWIGEIYPGSGSAYSNAKFKDRVTITADKSTNTAYMELRSLRSDDTAVYFCARRGNGTGFAYWGQGTLVTVSS VL: DIVLTQSPASLAVSLGQRATITCKAGQSVDYDGDSYMNWYQQKPGQPPKLLIYVASNLESGIPARFSGSGSGTDFTLNIHPVEENDAATYYCQQSYKDPLTFGQGTKLEIK

## Output
1. < 3 fold
2. < 3 fold

Data origin, for the record: patent US20040137000A1
